- TESTED ON: GlyT1 (Rattus norvegicus, UniProt P28572)
- Sequence (P28572 whole entry): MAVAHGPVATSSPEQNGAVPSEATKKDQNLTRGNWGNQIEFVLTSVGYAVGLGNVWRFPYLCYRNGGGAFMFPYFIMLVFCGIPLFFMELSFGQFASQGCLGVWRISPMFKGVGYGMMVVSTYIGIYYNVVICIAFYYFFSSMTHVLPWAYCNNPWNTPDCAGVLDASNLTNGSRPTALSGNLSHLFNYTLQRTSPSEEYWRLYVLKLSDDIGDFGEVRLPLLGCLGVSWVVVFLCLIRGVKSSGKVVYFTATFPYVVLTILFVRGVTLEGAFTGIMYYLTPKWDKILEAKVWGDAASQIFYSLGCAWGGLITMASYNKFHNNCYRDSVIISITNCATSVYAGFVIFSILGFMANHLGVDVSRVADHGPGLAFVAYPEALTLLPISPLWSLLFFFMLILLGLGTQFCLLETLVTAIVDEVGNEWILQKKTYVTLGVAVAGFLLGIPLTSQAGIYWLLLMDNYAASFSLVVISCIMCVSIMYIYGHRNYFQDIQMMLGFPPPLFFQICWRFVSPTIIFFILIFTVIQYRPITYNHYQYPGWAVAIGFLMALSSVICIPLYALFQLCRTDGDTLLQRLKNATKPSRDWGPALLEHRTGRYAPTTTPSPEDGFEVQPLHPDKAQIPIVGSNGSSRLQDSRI
- TEST DESCRIPTION: Inhibition of [3H]-glycine uptake in rat primary cortical neurons
- CONDITION: IC50, inhibition of [3H]-glycine uptake, mean
ENDPOINT: pIC50
The meaning of pIC50 here: minus log10 of the concentration in molar units.

Exercise: # get_value(readout='pIC50', item= C[C@@H](Oc1ccc(S(C)(=O)=O)cc1C(=O)N1C[C@@H]2C[C@]2(c2cc(C(F)(F)F)on2)C1)C(F)(F)F )
Key: 8.28

---

- TEST DESCRIPTION: Phase I pharmacokinetics in plasma and CSF, multiple dosing over 14 days
- Type: in vivo, human
- CONDITION: plasma; 50 mg oral, after first dose; geometric mean (% gCV); n = 5
ENDPOINT: AUC0–14 (µM·h)
Field format: number, assumed µM·h, no unit text.

Exercise: Form field: reported AUC0–14 of C[C@@H](Oc1ccc(S(C)(=O)=O)cc1C(=O)N1C[C@@H]2C[C@]2(c2cc(C(F)(F)F)on2)C1)C(F)(F)F
Key: 3.3

---

- TEST DESCRIPTION: Phase I pharmacokinetics in plasma and CSF, multiple dosing over 14 days
- Assay type: in vivo, human
- CONDITION: male, human, plasma, po, 50 mg
ENDPOINT: Cmax (nM)
The figure you give is taken to be in nM; do not add the unit.

Exercise: Would you mind telling me what Cmax value was observed for C[C@@H](Oc1ccc(S(C)(=O)=O)cc1C(=O)N1C[C@@H]2C[C@]2(c2cc(C(F)(F)F)on2)C1)C(F)(F)F ?
Key: 328

---

- TEST DESCRIPTION: Compound levels in rat plasma and CSF
- Format: in vivo
- CONDITION: plasma, po, 0.6 mg/kg
ENDPOINT: concentration at 90 min (nM)
Just the number please, in nM, no unit attached.

Exercise: Entry C[C@@H](Oc1ccc(S(C)(=O)=O)cc1C(=O)N1C[C@@H]2C[C@]2(c2cc(C(F)(F)F)on2)C1)C(F)(F)F : reported concentration at 90 min = ?
Key: 217

---

- TEST DESCRIPTION: Compound levels in rat plasma and CSF
- Assay type: in vivo
- CONDITION: plasma, po, 0.2 mg/kg
ENDPOINT: concentration at 90 min (nM)
Write down the numeric answer in nM and omit the unit.

Exercise: Which concentration at 90 min value is on record for C[C@@H](Oc1ccc(S(C)(=O)=O)cc1C(=O)N1C[C@@H]2C[C@]2(c2cc(C(F)(F)F)on2)C1)C(F)(F)F [BI 425809] ?
Key: 79

---

- TEST DESCRIPTION: Compound levels in rat plasma and CSF
- Type: in vivo
- CONDITION: plasma, po, 2 mg/kg
ENDPOINT: concentration at 90 min (nM)
Numeric answer only, unit nM assumed.

Exercise: Need concentration at 90 min of C[C@@H](Oc1ccc(S(C)(=O)=O)cc1C(=O)N1C[C@@H]2C[C@]2(c2cc(C(F)(F)F)on2)C1)C(F)(F)F , thanks.
Key: 723

---

- TEST DESCRIPTION: Phase I pharmacokinetics in plasma and CSF, multiple dosing over 14 days
- Type: in vivo, human
- CONDITION: male, human, CSF, po, 10 mg
ENDPOINT: Tmax

Exercise: // Tmax lookup, key: C[C@@H](Oc1ccc(S(C)(=O)=O)cc1C(=O)N1C[C@@H]2C[C@]2(c2cc(C(F)(F)F)on2)C1)C(F)(F)F [BI 425809]
Key: 5.5 h

---

- TESTED ON: human GlyT2 (Homo sapiens)
- Sequence (Q9Y345 whole entry): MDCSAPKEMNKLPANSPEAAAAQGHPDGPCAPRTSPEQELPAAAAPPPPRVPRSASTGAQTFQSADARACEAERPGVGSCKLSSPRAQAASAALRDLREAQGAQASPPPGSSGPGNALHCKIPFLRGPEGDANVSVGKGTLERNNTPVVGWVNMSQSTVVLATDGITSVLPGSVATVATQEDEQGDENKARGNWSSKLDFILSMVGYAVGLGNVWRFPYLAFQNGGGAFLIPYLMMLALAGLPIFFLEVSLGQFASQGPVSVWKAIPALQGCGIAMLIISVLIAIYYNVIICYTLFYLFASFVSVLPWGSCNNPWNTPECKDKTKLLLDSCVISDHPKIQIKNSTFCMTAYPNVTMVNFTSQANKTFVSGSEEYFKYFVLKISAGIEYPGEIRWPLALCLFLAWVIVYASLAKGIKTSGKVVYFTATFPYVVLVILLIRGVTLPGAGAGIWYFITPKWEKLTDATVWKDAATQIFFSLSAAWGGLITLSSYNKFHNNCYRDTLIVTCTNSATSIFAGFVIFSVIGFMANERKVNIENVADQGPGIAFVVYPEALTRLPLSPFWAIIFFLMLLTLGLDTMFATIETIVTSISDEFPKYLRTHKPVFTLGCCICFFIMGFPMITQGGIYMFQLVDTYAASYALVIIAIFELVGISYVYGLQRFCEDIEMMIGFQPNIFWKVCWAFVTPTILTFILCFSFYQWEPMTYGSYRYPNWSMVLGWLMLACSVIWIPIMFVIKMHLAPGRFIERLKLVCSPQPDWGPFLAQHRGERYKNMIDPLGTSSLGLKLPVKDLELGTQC
- TEST DESCRIPTION: Inhibition of [3H]-glycine uptake in HEK cells overexpressing human GlyT2
ENDPOINT: IC50

Exercise: Returns the measured IC50 for the input compound. Input: C[C@@H](Oc1ccc(S(C)(=O)=O)cc1C(=O)N1C[C@@H]2C[C@]2(c2cc(C(F)(F)F)on2)C1)C(F)(F)F
Key: > 10 µM

---

- TEST DESCRIPTION: Phase I pharmacokinetics in plasma and CSF, multiple dosing over 14 days
- Type: in vivo, human
- CONDITION: male, human, CSF, po, 5 mg
ENDPOINT: Tmax (h)
The reply should contain only the number, in h.

Exercise: Name the reported Tmax value associated with the molecule C[C@@H](Oc1ccc(S(C)(=O)=O)cc1C(=O)N1C[C@@H]2C[C@]2(c2cc(C(F)(F)F)on2)C1)C(F)(F)F [BI 425809]
Key: 8

---

- TEST DESCRIPTION: Phase I pharmacokinetics in plasma and CSF, multiple dosing over 14 days
- Type: in vivo, human
- CONDITION: male, human, plasma, po, 10 mg
ENDPOINT: Tmax (h)
# number only, unit h dropped from output

Exercise: Fill blank: measured Tmax of the compound C[C@@H](Oc1ccc(S(C)(=O)=O)cc1C(=O)N1C[C@@H]2C[C@]2(c2cc(C(F)(F)F)on2)C1)C(F)(F)F is ____.
Key: 4.5

---

- TEST DESCRIPTION: Phase I pharmacokinetics in plasma and CSF, multiple dosing over 14 days
- Assay type: in vivo, human
- CONDITION: male, human, plasma, po
ENDPOINT: Tmax

Exercise: What does the record list as Tmax for C[C@@H](Oc1ccc(S(C)(=O)=O)cc1C(=O)N1C[C@@H]2C[C@]2(c2cc(C(F)(F)F)on2)C1)C(F)(F)F [BI 425809] ?
Key: 3 to 5 h

---

- TEST DESCRIPTION: Phase I pharmacokinetics in plasma and CSF, multiple dosing over 14 days
- Format: in vivo, human
- CONDITION: male, human, CSF, po, 50 mg
ENDPOINT: Cmax (nM)
Report the figure in nM without appending any unit label.

Exercise: Look at this compound and give its reported Cmax. C[C@@H](Oc1ccc(S(C)(=O)=O)cc1C(=O)N1C[C@@H]2C[C@]2(c2cc(C(F)(F)F)on2)C1)C(F)(F)F
Key: 25

---

- TEST DESCRIPTION: Phase I pharmacokinetics in plasma and CSF, multiple dosing over 14 days
- Type: in vivo, human
- CONDITION: male, human, plasma, po, 5 mg
ENDPOINT: Cmax (nM)
Give the value in nM but do not write nM after it.

Exercise: Query (compound): C[C@@H](Oc1ccc(S(C)(=O)=O)cc1C(=O)N1C[C@@H]2C[C@]2(c2cc(C(F)(F)F)on2)C1)C(F)(F)F [BI 425809] ; field requested: Cmax
Key: 42.3

---

- TEST DESCRIPTION: Phase I pharmacokinetics in plasma and CSF, multiple dosing over 14 days
- Format: in vivo, human
- CONDITION: male, human, CSF, po, 25 mg
ENDPOINT: Tmax
Reply with the number and its unit after it.

Exercise: // query Tmax value for entry C[C@@H](Oc1ccc(S(C)(=O)=O)cc1C(=O)N1C[C@@H]2C[C@]2(c2cc(C(F)(F)F)on2)C1)C(F)(F)F
Key: 6.1 h

---

- TEST DESCRIPTION: Phase I pharmacokinetics in plasma and CSF, multiple dosing over 14 days
- Assay type: in vivo, human
- CONDITION: male, human, plasma, po, 25 mg
ENDPOINT: Tmax (h)
// note: answer is a bare numeric in h

Exercise: // Tmax lookup, key: C[C@@H](Oc1ccc(S(C)(=O)=O)cc1C(=O)N1C[C@@H]2C[C@]2(c2cc(C(F)(F)F)on2)C1)C(F)(F)F
Key: 3

---

- TEST DESCRIPTION: Phase I pharmacokinetics in plasma and CSF, multiple dosing over 14 days
- Format: in vivo, human
- CONDITION: male, human, plasma, po, 25 mg
ENDPOINT: Cmax (nM)
State the answer as a number, implicitly in nM.

Exercise: Record request: Cmax value, item C[C@@H](Oc1ccc(S(C)(=O)=O)cc1C(=O)N1C[C@@H]2C[C@]2(c2cc(C(F)(F)F)on2)C1)C(F)(F)F
Key: 176

---

- TEST DESCRIPTION: Phase I pharmacokinetics in plasma and CSF, multiple dosing over 14 days
- Type: in vivo, human
- CONDITION: CSF; 50 mg oral, after first dose; geometric mean (% gCV); n = 5
ENDPOINT: AUC0–14 (µM·h)
Response body: numeric value in µM·h, unit text excluded.

Exercise: # query: AUC0–14 of entry C[C@@H](Oc1ccc(S(C)(=O)=O)cc1C(=O)N1C[C@@H]2C[C@]2(c2cc(C(F)(F)F)on2)C1)C(F)(F)F
Key: 0.26

---

- TEST DESCRIPTION: Phase I pharmacokinetics in plasma and CSF, multiple dosing over 14 days
- Type: in vivo, human
- CONDITION: CSF; 5 mg oral, after first dose; geometric mean (% gCV); n = 6
ENDPOINT: AUC0–14 (µM·h)
Give the value in µM·h but do not write µM·h after it.

Exercise: Which AUC0–14 value belongs to C[C@@H](Oc1ccc(S(C)(=O)=O)cc1C(=O)N1C[C@@H]2C[C@]2(c2cc(C(F)(F)F)on2)C1)C(F)(F)F [BI 425809] ?
Key: 0.0299
